# System: MDA-MB-231
# ASSAY_DETAILS: normalised viability (% of control), CellTiter-Blue; higher = more viable cells (about 100 = DMSO control)
# EXPERIMENTAL_CONTEXT: 1000 nM; incubation time: 72 h
READOUT_TYPE: normalised viability

**Query** Look up normalised viability: C=CCN(/C=C1/C(=O)O[C@H](COC)[C@@]2(C)C1=C(O)C(=O)C1=C2[C@H](OC(C)=O)C[C@]2(C)C(=O)CC[C@@H]12)CC=C
**Result** 72.6%

**Query** Look up normalised viability: Cc1cc(Nc2nc(N[C@@H](C)c3ncc(F)cn3)ncc2Cl)[nH]n1
**Result** 85.7%

**Query** Look up normalised viability: CC1(C)CCC(c2ccc(Cl)cc2)=C(CN2CCN(c3ccc(C(=O)NS(=O)(=O)c4ccc(N[C@H](CCN5CCOCC5)CSc5ccccc5)c(S(=O)(=O)C(F)(F)F)c4)cc3)CC2)C1
**Result** 55.7%

**Query** Look up normalised viability: CC(=O)[C@]1(O)Cc2c(O)c3c(c(O)c2[C@@H](O[C@H]2C[C@H](N)[C@H](O)[C@H](C)O2)C1)C(=O)c1ccccc1C3=O
**Result** 8.68%

###

# System: CAL-85-1
# ASSAY_DETAILS: normalised viability (% of control), CellTiter-Blue; higher = more viable cells (100 = DMSO, 0 = benzethonium chloride kill control)
# EXPERIMENTAL_CONTEXT: incubation time: 72 h
READOUT_TYPE: normalised viability (%)
Number in %, nothing else.

**Query** Reported normalised viability for CAL-85-1, given CC(=O)[C@]1(O)Cc2c(O)c3c(c(O)c2[C@@H](O[C@H]2C[C@H](N)[C@H](O)[C@H](C)O2)C1)C(=O)c1ccccc1C3=O [Idarubicin] (0.1 nM) ?
**Result** 95.7

**Query** Reported normalised viability for CAL-85-1, given CCNC(=O)c1noc(-c2cc(C(C)C)c(O)cc2O)c1-c1ccc(CN2CCOCC2)cc1 [NVP-AUY922] (0.1 nM) ?
**Result** 104

**Query** Reported normalised viability for CAL-85-1, given C/C(=C\c1csc(C)n1)[C@@H]1C[C@@H]2O[C@]2(C)CCC[C@H](C)[C@H](O)[C@@H](C)C(=O)C(C)(C)[C@@H](O)CC(=O)N1 [Ixabepilone] (0.1 nM) ?
**Result** 84

**Query** Reported normalised viability for CAL-85-1, given CN(Cc1cnc2nc(N)nc(N)c2n1)c1ccc(C(=O)N[C@@H](CCC(=O)O)C(=O)O)cc1 [Methotrexate] (1 nM) ?
**Result** 95.9

**Query** Reported normalised viability for CAL-85-1, given CC(C)C[C@H](NC(=O)[C@@H](COC(C)(C)C)NC(=O)[C@H](Cc1ccc(O)cc1)NC(=O)[C@H](CO)NC(=O)[C@H](Cc1c[nH]c2ccccc12)NC(=O)[C@H](Cc1cnc[nH]1)NC(=O)[C@@H]1CCC(=O)N1)C(=O)N[C@@H](CCCNC(=N)N)C(=O)N1CCC[C@H]1C(=O)NNC(N)=O [Goserelin] (1 nM) ?
**Result** 87.7

**Query** Reported normalised viability for CAL-85-1, given CC1(C)CCC(c2ccc(Cl)cc2)=C(CN2CCN(c3ccc(C(=O)NS(=O)(=O)c4ccc(N[C@H](CCN5CCOCC5)CSc5ccccc5)c(S(=O)(=O)C(F)(F)F)c4)cc3)CC2)C1 [Navitoclax] (1 nM) ?
**Result** 79.1
